# Experiment: Distribution coefficient, logD of compound at pH 8 by Sirius T3 apparatus based potentiometric titration analysis
# Format: physicochemical
# Experimental Context: octanol/water
So I've got a bunch of compounds here, and I need their logD values.
Reply with the value as a number alone.

// returns reported logD for input `Cc1cccc(Cc2noc(S)n2)c1`
-0.7

// returns reported logD for input `Cc1cccc(CC(=O)O)c1`
-0.7

// returns reported logD for input `Cc1cccc(-c2noc(S)n2)c1`
-0.7
